Test system: NCI/ADR-RES ovarian
assay_details: NCI-60 one-dose screen, 48 h (100 = growth as untreated, 0 = no growth, -100 = all killed)
particulars: 10 µM unless noted
Compounds without any hit were thinned out: in the full panel of roughly 83,000, 20% have a hit.
Sorting guide: entries reporting growth beneath 20% go in the satisfied pile, the rest go in the not satisfied pile.

Worked examples follow.
- smiles_representation: "c1ccc2cc(Cn3c(-c4cccc5ccccc45)[n+](Cc4ccc5ccccc5c4)c4c5ccccc5c5ccccc5c43)ccc2c1"
  label: "satisfied"
- smiles_representation: "COc1ccc(/C=C/C(=O)Nc2cc(/C=C\\c3cc(OC)c(OC)c(OC)c3)cc(OC)c2OC)cc1OC"
  label: "satisfied"

Query block: Please state whether growth is below 20% for Clc1ccc(-c2ccc(CNCC3CCNCC3)o2)c(-c2ccccc2)c1
Result block: satisfied

Query block: Is growth of C[C@H]1[C@H]2[C@H]3CC[C@@H]4[C@@]5(C)CC[C@H](O)C(C)(C)[C@@H]5CC[C@@]4(C)[C@]3(C)CC[C@]23CO[C@]1(C)[C@@H](C(=O)/C=C\c1ccco1)C3 strictly below 20%?
Result block: not satisfied

Query block: Consider the compound COc1ccc(C/C(=C(\C)c2ccc(OCCN3CCCC3)cc2)c2ccc(OCCN3CCCC3)cc2)cc1 . Is its growth strictly less than 20%?
Result block: not satisfied

Query block: Could you please tell me whether growth recorded for N#Cc1c(NC(=O)NCc2ccccc2)sc2c1CCCCC2 is less than 20%?
Result block: satisfied

Query block: Please state whether growth is below 20% for O=C(/C=C/c1c(-c2ccc(Cl)cc2)nn(-c2ccccc2)c1C(F)(F)F)c1ccc(Cl)cc1
Result block: not satisfied

Query block: growth strictly < 20% for this compound? Cc1ncc(C(=O)Nc2ccc(CN3CCN(C)CC3)c(C(F)(F)F)c2)cc1C#Cc1cnc(N)cc1C#N
Result block: satisfied

---

growth reference
Tested on: UACC-257 melanoma
assay_details: NCI-60 one-dose screen, 48 h (100 = growth as untreated, 0 = no growth, -100 = all killed)
particulars: 10 µM unless noted
About 83,000 compounds went through this panel and 20% of them were active in at least one assay; those are over-represented in the sample as a whole.
Only the number, expressed in %, is required.

- smiles_representation: "Cc1cc2nc3c4cc([N+](=O)[O-])ccc4n(CCN(C)C)c3nc2cc1C"
  growth [%]: -1.98

Query block: Entry under review: COc1c(Cl)c2c(c(OC)c1OC)-c1ccc(SC)c(=O)cc1[C@@H](NC(=O)OCC(F)(F)F)CC2 . Reported growth?
Result block: 70.5

Query block: What does the record list as growth for CNCCn1c(=O)c2cc(OC)c(OC)cc2c2ccc3cc4c(cc3c21)OCO4 ?
Result block: -76.3

---

System: SNB-75 CNS
assay_details: NCI-60 one-dose screen, 48 h
particulars: 10 µM unless noted
This is part of a sample that, as a whole, favours compounds with a hit. Of some 83,000 tested, about 20% had one in any assay. Active and inactive are the calls of the source. The calls were made as follows: active = growth percent below 10; inactive = the rest.
The reply should name one outcome from active, inactive

- smiles_representation: "CC(C)=CCC[C@](C)(O)[C@H]1CC[C@]2(C)[C@@H]1CC[C@@H]1[C@@]3(C)C/C(=C/c4ccccc4)C(=O)C(C)(C)[C@@H]3CC[C@]12C"
  label: "inactive"
- smiles_representation: "CCc1ccc(-c2cn3ccnc3c(-c3ccc4ncn(Cc5ccccc5)c4c3)n2)cc1"
  label: "inactive"
- smiles_representation: "O=C(c1nnc(Nc2ccccc2Br)o1)c1c[nH]c2ccccc12"
  label: "inactive"
- smiles_representation: "C=C(C)[C@@H]1CC[C@]2(CN)CC[C@]3(C)[C@H](CC[C@@H]4[C@@]5(C)CCCNC(C)(C)[C@@H]5CC[C@]43C)[C@@H]12"
  label: "active"
- smiles_representation: "O=C(NCCc1ccccc1)Nc1ccc2cc3ccc(NC(=O)NCCc4ccccc4)cc3nc2c1"
  label: "inactive"
- smiles_representation: "COc1ccc(C(=O)CC#N)cc1"
  label: "inactive"
- smiles_representation: "COc1cc2c(c(O)c1Br)C(=O)c1c(O)cc(C[C@H](C)O)cc1[C@H]2[C@H]1c2cc(C[C@H](C)O)cc(O)c2C(=O)c2c1cc(OC)c(Br)c2O"
  label: "active"

Query block: Could you check what this test reported for O=S(=O)(NCCNc1nccc(-c2c(-c3cccc(F)c3)nc3sccn23)n1)c1ccc(Br)cc1 ?
Result block: inactive

---

Tested on: K-562 leukemia
assay_details: NCI-60 one-dose screen, 48 h (100 = growth as untreated, 0 = no growth, -100 = all killed)
particulars: 10 µM unless noted
This is part of a sample that, as a whole, favours compounds with a hit. Of some 83,000 tested, about 20% had one in any assay.
readout: growth (%)
Just the number please, in %, no unit attached.

Below are worked cases with known answers.
- compound: "O=C(CCN1CCCC1)c1ccc([N+](=O)[O-])cc1"
  growth, %: 100
- compound: "COC(=O)/C=C1\\S/C(=N\\NC(=O)c2cc3ccc2/C=C\\c2ccc(cc2)/C=C\\3)N(Cc2ccccc2)C1=O"
  growth, %: 18.9
- compound: "CNC(=O)c1cc(Cn2nc(C)c(NC(=O)Nc3ccc(Cl)c(C(F)(F)F)c3)c2C)ccn1"
  growth, %: 112

Query block: # lookup: growth of CCN1C(=O)/C(=C/C(=O)OC)S/C1=N\NC(=O)c1cc2ccc1/C=C\c1ccc(cc1)/C=C\2
Result block: 54.2

Query block: What growth value was documented for this compound, CC(C)(C)c1ccc(NS(=O)(=O)c2ccc3nc(NC(=O)c4cnccn4)[nH]c3c2)cc1 ?
Result block: 15.7

Query block: Need growth of COc1ccc(C(=O)c2cc(C)c(OC)c(C)c2)c(OC)c1NC(C)=O , thanks.
Result block: 15.5

Query block: Fill in: growth of CCN(CC)CCCC(C)Nc1cc(O)cc2cccnc12 (centres undefined) is ___
Result block: 87.4

Query block: Fill in: growth of COc1cc(/C=N/O)nc(-c2ccccn2)c1 is ___
Result block: 11.6

Query block: // returns reported growth for input c1ccc(-c2c(-c3ccccc3)[n+](Cc3ccc4ccccc4c3)c(-c3cccc4ccccc34)n2Cc2ccc3ccccc3c2)cc1
Result block: -3.62

---

Recorded growth for the following compounds
System: HCC-2998 colon
assay_details: NCI-60 one-dose screen, 48 h (100 = growth as untreated, 0 = no growth, -100 = all killed)
particulars: 10 µM unless noted
The panel holds about 83,000 compounds, 20% with a hit somewhere; the sample as a whole holds those more often.
Just the number please, in %, no unit attached.

Sample answers from the record:
- compound: "COCc1cnccc1NC1CCCCCC1"
  reported: 103
- compound: "CC1(C)NCCC[C@]2(C)[C@H]3CC(=O)[C@H]4[C@@H]5C[C@](C)(CO)CC[C@]5(C)CC[C@@]4(C)[C@]3(C)CC[C@@H]12"
  reported: 100
- compound: "Nc1nc(Nc2ccccc2SSc2ccccc2Nc2nc(N)nc(-c3ccc(C(F)(F)F)cc3)n2)nc(-c2ccc(C(F)(F)F)cc2)n1"
  reported: 93.1

Query block: Lab request: please report growth under test system HCC-2998 colon for N#C/C(=C\c1cccc(C#N)c1)c1ccccc1
Result block: 93.1

Query block: Notebook: pull reported growth for HCC-2998 colon, entry COc1ccc(/C=N/NC(=O)c2cnn3c2NC(c2ccccc2)C3)cc1OC (centres undefined)
Result block: 67

---

Tested on: SK-OV-3 ovarian
assay_details: NCI-60 one-dose screen, 48 h (100 = growth as untreated, 0 = no growth, -100 = all killed)
particulars: 10 µM unless noted
Compounds without any hit were thinned out: in the full panel of roughly 83,000, 20% have a hit.
readout: growth (%)
Express the result in % but write the number alone.

// known answers, use as guide
- compound: "N#CC1=C(/N=C/c2ccccc2)Oc2c(ccc3ccccc23)C1c1ccc([N+](=O)[O-])cc1 (centres undefined)"
  reported: 86.9
- compound: "CCCCCCCCOc1ccc(/C=N/Nc2cc(C)nc3ccc(Br)cc23)cc1"
  reported: 104
- compound: "CCOC(=O)c1cc(C(=O)c2cc(OC)cc(OC)c2)n2ccc3ccccc3c12"
  reported: 98.2
- compound: "CC(C)(C)c1cc(/C=N/NC(=O)c2ccccc2NC(=O)c2cccs2)c(O)c(C(C)(C)C)c1"
  reported: 31.8
- compound: "Cc1ccc(NS(=O)(=O)c2ccc(-c3cnc(C4CC4)o3)cc2)cc1C(F)(F)F"
  reported: 86.8
- compound: "Cc1ccc(S(=O)(=O)NNC(=O)/C(=C\\c2ccc(Cl)cc2)c2nc3ccccc3s2)cc1"
  reported: 105
- compound: "CCOC(=O)[C@@H]1CCCN(S(=O)(=O)c2ccc(S(=O)(=O)N(CC)CC)c(F)c2)C1"
  reported: 82.4
- compound: "Nc1c(C(=O)Nc2ccnc3ccccc23)sc2nc3c(cc12)CN(Cc1ccccc1)CC3"
  reported: 98.9

Query block: For Oc1c(Cl)cc(Cl)c(Cl)c1CNCCNCc1c(O)c(Cl)cc(Cl)c1Cl , what is its reported growth?
Result block: 22
